# ASSAY_SYSTEM: T1, hFGFR4-Histag (human, UniProt P22455 22-365)
# T1 construct: also called SABVA4614
# T1 sequence (P22455 other isoform, or with tags, fused parts or gaps): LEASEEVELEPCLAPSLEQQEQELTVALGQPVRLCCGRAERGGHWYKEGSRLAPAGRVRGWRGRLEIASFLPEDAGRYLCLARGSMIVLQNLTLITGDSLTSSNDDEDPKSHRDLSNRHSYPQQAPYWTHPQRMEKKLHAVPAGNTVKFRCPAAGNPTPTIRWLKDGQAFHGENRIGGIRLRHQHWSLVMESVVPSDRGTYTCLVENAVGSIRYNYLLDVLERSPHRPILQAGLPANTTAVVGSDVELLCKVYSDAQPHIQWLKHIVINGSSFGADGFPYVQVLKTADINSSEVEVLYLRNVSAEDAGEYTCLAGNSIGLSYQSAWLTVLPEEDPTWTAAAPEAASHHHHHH
# ASSAY_OVERVIEW: ELISA, HEK293 supernatant IgG on coated antigen
Exercise: state measured OD signal at 450 nm for each of the binders provided.
Give the value; after it, write the unit.

anti-FGFR4 antibody clone 31 (human IgG1 format) (antibody, V domains shown, As for clone 8: human IgG1 format from HEK293; also called antibody 31) VH: EVQLLESGGGLVQPGGSLRLSCAASGFTFSRYFMKWVRQAPGKGLEWVSWISPSGGLTEYADSVKGRFTISRDNSKNTLYLQMNSLRAEDTAVYYCARASYGAWLDYWGQGTLVTVSS VL: DIQMTQSPSSLSLSPGERATLSCRASQSINRNLGWYQQKPGQAPRLLIYGASTRATGIPARFTGSGSGTEFSLTISSLQSEDYAIYYCQQYDNWPIIFGQGTRLEIKG	3.86 OD 450 nm
anti-FGFR4 antibody clone 33 (human IgG1 format) (antibody, V domains shown, As for clone 8: human IgG1 format from HEK293; also called antibody 33) VH: EVQLLESGGGLVQPGGSLRLSCAASGFTFSTYWMAWVRQAPGKGLEWVSVIGPSGGMTVYADSVKGRFTISRDNSKNTLYLQMNSLRAEDTAVYYCARINSGSSHFDYWGQGTLVTVSS VL: QSVLTQPPSASGTPGQGVTISCSGSSSNIGSNSVNWYQQLPGAAPKLLIYSNNLRPSGVPARFSGSKSGTSASLAISGLRSEDEADYYCAAWDDGLDAYVVFGGGTKLTVLG	3.75 OD 450 nm
anti-FGFR4 antibody clone 8 (human IgG1 format) (antibody, V domains shown, also called antibody 8) VH: EVQLLESGGGLVQPGGSLRLSCAASGFTFSPYWMGWVRQAPGKGLEWVSVIWPSGGTTDYADSVKGRFTISRDNSKNTLYLQMNSLRAEDTAVYYCARVHPAGHNDHWGQGTLVTVSS VL: QSELTQPPSASGTPGQRVTISCSGGYSNMGSNYAHWYQQLPGTAPKLLIYNNNQRPSGVPDRFSGSKSGTSASLAISGLRSEDEADYYCAAWDDSLSGPVFGGGTKLTVLG	3.9 OD 450 nm

API: the following record is the query input.
[Q] What does the data say about its OD signal at 450 nm? Entry: anti-FGFR4 antibody clone 36 (human IgG1 format) (antibody, V domains shown, As for clone 8: human IgG1 format from HEK293; also called antibody 36) VH: EVQLLESGGGLVQPGGSLRLSCAASGFTFSHYWMGWVRQAPGKGLEWVSVISPSGGLTIYADSVKGRFTISRDNSKNTLYLQMNSLRAEDTAVYYCARSSGWALDAFDIWGQGTMVTVSS VL: QYELTQPPSASGTPGQRVTISCSGSSSNIGSNIVHWYQQLPGTAPKLLIYGNNQRPSGVPDRFSVSKSGSSASLAISGLQSEDEADYYCASWDDSLKAFYVFGTGTKVTVLG
[A] 3.75 OD 450 nm
